# STUDY SYSTEM: SARS-CoV-2 S-RBD with Avi-tag and deca-His tag (residues 330-531) (SARS-CoV-2, UniProt P0DTC2, biotin on the Avi tag (BirA) where immobilised on streptavidin sensors or used in ELISA and FSEC)
READOUT LABEL: binding result

LR13 (VHH) VHH: QVQLVESGGGSVQAGGSLRLSCAASGSISSITYLGWFRQAPGKEREGVAALITHAGRTYYADSVKGRFTVSLDNAKNTVYLQMNSLKPEDTALYYCAAADWGWYWPLVIDHYEYWGQGTQVTVS
binds
SR60 (VHH) VHH: QVQLVESGGGLVQAGGSLRLSCAASGFPVEHAQMAWYRQAPGKEREWVAAIQSYGSTTYYADSVKGRFTISRDNAKNTVYLQMNSLKPEDTAVYYCAVHVGFWYAGQGTQVTVS
binds
SR45 (VHH) VHH: QVQLVESGGGLVQAGGSLRLSCAASGFPVDNATMAWYRQAPGKEREWVAAIHSIGGYTTYADSVKGRFTISRDNAKNTVYLQMNSLKPEDTAVYYCVGVGKHYYGQGTQVTVS
binds
SR34 (VHH) VHH: QVQLVESGGGLVQAGGSLRLSCAAGGFPVKDHEMEWYRQAPGKEREWVAAITSSGWGTNTYYADSVKGRFTISRDNAKNTVYLQMNSLKPEDTAVYYCYVYVGSSYIGQGTQVTVS
binds

# binding result of SR59 (VHH) VHH: QVQLVESGGGLVQAGGSLRLSCAASGFPVKTSRMYWYRQAPGKEREWVAAIISYGSVTFYADSVKGRFTISRDNAKNTVYLQMNSLKPEDTAVYYCYVYVGAQYWGQGTQVTVS = binds

# binding result of SR24 (VHH) VHH: QVQLVESGGGLVQAGGSLRLSCAASGFPVNAMEMTWYRQAPGKEREWVAAIMSEGTWTEYADSVKGRFTISRDNAKNTVYLQMNSLKPEDTAVYYCYVYVGASYIGQGTQVTVS = binds

# binding result of SR57 (VHH) VHH: QVQLVESGGGLVQAGGSLRLSCAASGFPVEQAEMAWYRQAPGKEREWVAAIVSYGHSTYYADSVKGRFTISRDNAKNTVYLQMNSLKPEDTAVYYCAVFVGFWYAGQGTQVTVS = binds

# binding result of SR12 (VHH) VHH: QVQLVESGGGLVQAGGSLRLSCAASGFPVNMQEMEWYRQAPGKEREWVAAISSTGWVTYYADSVKGRFTISRDNAKNTVYLQMNSLKPEDTAVYYCYVYVGASYIGQGTQVTVS = binds
